// provenance: paper PMC9385959

- testedSystem: UniProt:A0A484HRI4
- Sequence (A0A484HRI4 entry or part of it): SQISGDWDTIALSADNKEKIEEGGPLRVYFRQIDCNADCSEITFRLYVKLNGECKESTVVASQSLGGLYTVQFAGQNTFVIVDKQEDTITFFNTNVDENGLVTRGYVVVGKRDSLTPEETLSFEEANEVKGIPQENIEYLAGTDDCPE
- assayText: Competitive fluorescence-quenching assay, Cav p 1.0201
- Format: binding, guinea pig
- conditionSummary: 5 μM Cav p 1.0201, fluorochrome 1-AMA; read-out: Ligand inhibition constant Ki
pKi: −log10 of the molar value.
assayReadout: pKi

moleculesmiles=CC(C)=CCC/C(C)=C/CC/C(C)=C/CO testedsystem=UniProt:A0A484HRI4 assayreadout=pKi testresult=6.22

----------
- testedSystem: Can f 6 (Canis lupus familiaris)
- Construct: polyhistidine tag (C); made in house; host or cells: E. coli Rosetta-gami 2
- Sequence (H2B3G5 16-190): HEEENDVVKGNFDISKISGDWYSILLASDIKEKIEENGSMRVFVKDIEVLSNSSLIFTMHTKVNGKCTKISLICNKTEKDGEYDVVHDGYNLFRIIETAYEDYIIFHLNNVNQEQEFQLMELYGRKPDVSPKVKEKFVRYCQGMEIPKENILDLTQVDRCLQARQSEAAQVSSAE
- assayText: Fluorochrome binding to Can f 6 (emission spectra and titration)
- Parameters: species or system dog
- conditionSummary: 5 μM Can f 6; Figure 5C; read-out: Kd, one-site fit model of total and non-specific binding
assayReadout: Kd (µM)

moleculesmiles=c1ccc(Nc2cccc3ccccc23)cc1 testedsystem="Can f 6 (Canis lupus familiaris)" testresult=59.9
